The origin of these recorded values is patent US10513521B2.

System: ALK2 (Homo sapiens, UniProt Q04771)
Sequence (Q04771 21-509): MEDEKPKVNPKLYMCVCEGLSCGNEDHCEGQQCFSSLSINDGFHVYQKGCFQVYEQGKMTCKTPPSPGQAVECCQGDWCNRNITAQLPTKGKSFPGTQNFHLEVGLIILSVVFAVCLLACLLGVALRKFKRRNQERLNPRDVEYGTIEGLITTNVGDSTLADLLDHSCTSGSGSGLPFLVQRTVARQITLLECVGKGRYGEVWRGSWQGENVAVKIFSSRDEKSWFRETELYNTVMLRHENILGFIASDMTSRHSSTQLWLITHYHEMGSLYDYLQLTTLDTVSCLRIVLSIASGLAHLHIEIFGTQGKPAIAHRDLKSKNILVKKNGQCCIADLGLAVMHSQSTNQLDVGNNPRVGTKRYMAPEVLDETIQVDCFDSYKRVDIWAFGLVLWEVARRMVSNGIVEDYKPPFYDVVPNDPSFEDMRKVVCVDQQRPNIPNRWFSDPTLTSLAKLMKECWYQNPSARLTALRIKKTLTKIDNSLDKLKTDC
Assay Name: TR-FRET enzymatic ALK kinase assay, ALK2
Measured Quantity: IC50 (nM)

> print(dat)
                                   molecule  measured.quantity  observed.measurement
1  CS(=O)(=O)c1cccc(-c2cnn3cc(-c4ccc(C(F)(F)CN5CCNCC5)cc4)cnc23)c1               IC50                   250

[I] NS(=O)(=O)c1ccc(-c2cnn3cc(-c4ccc(OC5(CN6CCCC6)CC5)cc4)cnc23)c2ccccc12
[II] O=C(O)c1ccc(-c2cnn3cc(-c4ccc(N5CCNCC5)cc4)cnc23)c2ccccc12
Input: Compare the recorded IC50 of I and II ; state which is larger. Answer with the label corresponding to your selection.
Output: II
(II: 37 nM, I: 16 nM)

[A] C[C@@H]1CNC[C@H](C)N1c1ccc(-c2cnc3c(-c4cccc5c(CO)cccc45)cnn3c2)cc1
[B] C[C@@H]1CNC[C@H](C)N1c1ccc(-c2cnc3c(-c4cccc(C[S+](C)(=O)[O-])c4)cnn3c2)cc1
Input: Compare the recorded IC50 of A and B ; state which is larger. Answer with the label corresponding to your selection.
Output: B
(B: 49 nM, A: 16 nM)
